# REPORTED CONDITIONS: 298.15 K
Friendly reminder: surface tension liquid-gas below 30 mN/m is condition met, at or above is condition not met.

Completed entries (count: 6):
Is 30 mN/m strictly greater than the compound's reported surface tension liquid-gas? compound: CCO [ethanol] condition met

Determine if CCOC(=O)Cc1ccccc1 [ethyl phenylacetate] shows surface tension liquid-gas strictly lower than 30 mN/m. condition not met

Answer whether the compound CCOC(=O)c1ccccc1 [ethyl benzoate] has surface tension liquid-gas strictly less than 30 mN/m condition not met

Determine if CCCCCC(=O)OCC [ethyl hexanoate] shows surface tension liquid-gas strictly lower than 30 mN/m. condition met

Does CCCCCCCC(=O)OCC [ethyl octanoate] have surface tension liquid-gas strictly under 30 mN/m? condition met

Here's an entry: CCCC(=O)OCCC(C)C [3-methylbutyl butanoate] . Is its surface tension liquid-gas below 30 mN/m? condition met

For the next question, use this compound.
Below 30 mN/m on surface tension liquid-gas? Entry CC(=O)OCCC(C)C [3-methylbutyl ethanoate] condition met

* * *

# PROCEDURE DETAILS: refractive index (Na D-line) (dimensionless); xn = mol fraction of the nth substance listed
# REPORTED CONDITIONS: 298.15 K; 100.5 kPa; Liquid; Standard Abbe refractometry; x1 = 0.5
ENDPOINT LABEL: refractive index
Please give the numeric answer without any surrounding text.

Please review the entries below; each comes with its answer.
Input CCCC(=O)OCCC(C)C [3-methylbutyl butanoate] + CCO . Output refractive index: 1.39624

# refractive index of CCCCCCCC(=O)OCC [ethyl octanoate] + CCO = 1.40263

Record summary for CCOC(=O)Cc1ccccc1 [ethyl phenylacetate] + CCO : reported refractive index = 1.45953

Others:
refractive index reading for CCCCCC(=O)OCC [ethyl hexanoate] + CCO : 1.39296

molecule CCOC(=O)c1ccccc1 [ethyl benzoate] + CCO , refractive index observed: 1.46309

Form field refractive index, entry CC(=O)OCCC(C)C [3-methylbutyl ethanoate] + CCO : 1.38717

* * *

# PROCEDURE DETAILS: refractive index (Na D-line) (dimensionless); xn = mol fraction of the nth substance listed
# REPORTED CONDITIONS: 318.15 K; 100.5 kPa; Liquid; Standard Abbe refractometry; x1 = 0.15
ENDPOINT LABEL: refractive index
Lab note: record just the number, no unit beside it.

Value of measured refractive index for the entry CCCCCCCC(=O)OCC [ethyl octanoate] + CCO : 1.37184

More entries:
The compound listed as CC(=O)OCCC(C)C [3-methylbutyl ethanoate] + CCO shows refractive index equal to 1.36263

Per the records, this compound ( CCCCCC(=O)OCC [ethyl hexanoate] + CCO ) has refractive index equal to 1.36601

Recorded refractive index (compound CCOC(=O)c1ccccc1 [ethyl benzoate] + CCO ): 1.39551

// refractive index value for CCOC(=O)Cc1ccccc1 [ethyl phenylacetate] + CCO : 1.39573

For CCCC(=O)OCCC(C)C [3-methylbutyl butanoate] + CCO the compound record lists refractive index as 1.36792

* * *

refractive index listing for selected compounds.
# PROCEDURE DETAILS: refractive index (Na D-line) (dimensionless); xn = mol fraction of the nth substance listed
# REPORTED CONDITIONS: 318.15 K; 100.5 kPa; Liquid; Standard Abbe refractometry; x1 = 0.6
Could you keep your reply to the number by itself?

get_value(item= CCOC(=O)c1ccccc1 [ethyl benzoate] + CCO , readout=refractive index) returns 1.46424

New cases:
GET /value?item= CCOC(=O)Cc1ccccc1 [ethyl phenylacetate] + CCO &field=refractive index returns 1.45975

So, CCCC(=O)OCCC(C)C [3-methylbutyl butanoate] + CCO ? Its refractive index was 1.39067

Entry CCCCCC(=O)OCC [ethyl hexanoate] + CCO , refractive index reported as 1.38716

refractive index reported for this compound CCCCCCCC(=O)OCC [ethyl octanoate] + CCO : 1.3976

Sample CC(=O)OCCC(C)C [3-methylbutyl ethanoate] + CCO ; refractive index observed: 1.38082
